Source listed as PubChem BioAssay (NCATS).

Target: Lysine-specific demethylase 5B (Homo sapiens) (UniProt Q9UGL1)
Sequence (Q9UGL1 whole entry, looked up): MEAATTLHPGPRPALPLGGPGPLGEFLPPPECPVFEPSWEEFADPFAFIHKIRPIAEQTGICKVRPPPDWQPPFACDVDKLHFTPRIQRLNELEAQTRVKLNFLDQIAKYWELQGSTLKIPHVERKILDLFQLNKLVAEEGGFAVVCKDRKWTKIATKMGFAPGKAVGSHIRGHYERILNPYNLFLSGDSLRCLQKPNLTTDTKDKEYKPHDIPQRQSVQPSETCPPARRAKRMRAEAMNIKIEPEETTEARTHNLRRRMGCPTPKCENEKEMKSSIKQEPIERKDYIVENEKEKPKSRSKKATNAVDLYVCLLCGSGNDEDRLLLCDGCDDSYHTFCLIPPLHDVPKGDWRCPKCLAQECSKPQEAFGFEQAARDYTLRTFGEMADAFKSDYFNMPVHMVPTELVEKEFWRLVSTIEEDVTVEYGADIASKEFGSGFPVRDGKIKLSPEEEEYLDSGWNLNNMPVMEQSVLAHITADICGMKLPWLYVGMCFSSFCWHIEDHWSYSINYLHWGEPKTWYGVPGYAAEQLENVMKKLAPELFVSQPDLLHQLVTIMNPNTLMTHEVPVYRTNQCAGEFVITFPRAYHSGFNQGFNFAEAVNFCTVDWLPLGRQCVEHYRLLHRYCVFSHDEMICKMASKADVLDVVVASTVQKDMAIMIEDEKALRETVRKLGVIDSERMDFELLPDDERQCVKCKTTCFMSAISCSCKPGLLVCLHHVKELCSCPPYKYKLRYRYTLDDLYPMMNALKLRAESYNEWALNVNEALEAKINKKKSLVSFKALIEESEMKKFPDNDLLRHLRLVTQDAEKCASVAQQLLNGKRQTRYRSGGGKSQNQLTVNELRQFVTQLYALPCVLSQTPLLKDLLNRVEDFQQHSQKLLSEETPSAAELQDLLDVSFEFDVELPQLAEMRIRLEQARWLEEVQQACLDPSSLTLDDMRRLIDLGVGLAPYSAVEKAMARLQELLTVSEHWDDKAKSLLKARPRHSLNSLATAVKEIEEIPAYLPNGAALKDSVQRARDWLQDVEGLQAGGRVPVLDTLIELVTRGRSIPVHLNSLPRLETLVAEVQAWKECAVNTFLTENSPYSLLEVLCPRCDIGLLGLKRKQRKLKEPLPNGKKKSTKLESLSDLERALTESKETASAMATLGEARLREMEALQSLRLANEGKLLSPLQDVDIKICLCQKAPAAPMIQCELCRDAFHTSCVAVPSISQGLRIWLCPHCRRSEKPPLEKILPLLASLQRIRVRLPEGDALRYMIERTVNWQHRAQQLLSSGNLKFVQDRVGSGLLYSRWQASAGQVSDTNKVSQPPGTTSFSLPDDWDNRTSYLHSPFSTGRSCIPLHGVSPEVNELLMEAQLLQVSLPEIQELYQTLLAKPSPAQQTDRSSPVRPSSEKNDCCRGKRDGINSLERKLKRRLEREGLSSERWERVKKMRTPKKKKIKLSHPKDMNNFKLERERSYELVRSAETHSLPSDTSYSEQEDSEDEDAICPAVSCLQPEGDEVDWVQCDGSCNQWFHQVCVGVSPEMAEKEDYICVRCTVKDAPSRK
Test: Optimization screen for KDM5B Histone Demethylases FDH coupled qHTS against the LOPAC library (AID 1347166)
Details: KDM5B demethylation, FDH-coupled NADH fluorescence (FDH is formaldehyde dehydrogenase); series mostly up to 57.5 µM
Records with an inconclusive call do not appear. Active and inactive are the calls of the source. Calls follow the shape of the dose curve; as a rule, active = well fitted inhibition curve with a large enough effect; inconclusive = small, poorly fitted or top-dose-only effect; inactive = flat fitted curve, though single readings scatter.

[
  {
    "compound": "O=C1c2c(O)ccc(O)c2C(=O)c2c(NCCNCCO)ccc(NCCNCCO)c21",
    "outcome": "inactive"
  },
  {
    "compound": "CC12CC3CC(C)(C1)CC(N)(C3)C2",
    "outcome": "inactive"
  },
  {
    "compound": "CCC1(C)CC(=O)NC1=O (configuration not stated)",
    "outcome": "inactive"
  },
  {
    "compound": "COc1ccccc1OCC(O)CN1CCN(CC(=O)Nc2c(C)cccc2C)CC1 (configuration not stated)",
    "outcome": "inactive"
  },
  {
    "compound": "CCOC(=O)c1ncn2c1CN(C)C(=O)c1cc(F)ccc1-2",
    "outcome": "inactive"
  },
  {
    "compound": "NC(=O)OCC(COC(N)=O)c1ccccc1",
    "outcome": "inactive"
  },
  {
    "compound": "O=C(CCCN1CCC(O)(c2ccc(Cl)cc2)CC1)c1ccc(F)cc1",
    "outcome": "inactive"
  },
  {
    "compound": "CCCNCC(O)COc1ccccc1C(=O)CCc1ccccc1 (configuration not stated)",
    "outcome": "inactive"
  },
  {
    "compound": "CC(C)NCC(O)COc1ccc(CCOCC2CC2)cc1 (configuration not stated)",
    "outcome": "inactive"
  },
  {
    "compound": "Cc1cnc(C(=O)NCCc2ccc(S(=O)(=O)NC(=O)NC3CCCCC3)cc2)cn1",
    "outcome": "inactive"
  },
  {
    "compound": "CCN1CCCC1CNC(=O)c1cc(S(=O)(=O)CC)c(N)cc1OC (configuration not stated)",
    "outcome": "inactive"
  },
  {
    "compound": "CCOC(=O)C(C)(C)Oc1ccc(Cl)cc1",
    "outcome": "inactive"
  }
]
